From: PubChem BioAssay (Tox21)

assay: A CellTox Green Cytotoxicity Assay to monitor cytotoxicity in HepG2 cells - 0 hour (AID 1224882); conditions: CellTox Green fluorescence; series mostly up to 76.8 µM; further: nearly all actives have a fitted effect of over 35% in size
Activity calls are given as the source filed them. The call rests on the fitted dose curve; in most records, active means well fitted activation curve with a large enough effect in the repeat runs; inconclusive means weak or mixed curves; inactive means flat fitted curve, though single readings scatter.
PROPERTY: cytotoxicity

Observe how each entry below is paired with its result.
{"columns": ["COMPOUND", "PROPERTY", "RESULT"],
 "data": [
  ["O=C(O)c1cc(Cl)cc([N+](=O)[O-])c1Cl", "cytotoxicity", "inactive"],
  ["CN1C(C)(C)CCCC1(C)C", "cytotoxicity", "inactive"],
  ["OCCCCC(O)CO (stereo not drawn)", "cytotoxicity", "inactive"],
  ["COc1ccc(OC)c(Cl)c1", "cytotoxicity", "inactive"],
  ["CC(C)N(c1ccccc1)C(C)C", "cytotoxicity", "inactive"]
]}

### Prompt Look at this compound and give its reported cytotoxicity. Cc1[nH]cnc1-c1ccc(Cl)cc1
### Response inactive

### Prompt What would you report for CCCCCCCCCC(C)=O ?
### Response inactive

### Prompt What would you report for CCCC(=O)C(C)=O ?
### Response inactive
